Ref: the supplement of paper PMC9334596

system: mPer2Luc MEF; assay: PER2::LUC luminescence relative to vehicle control (fold of vehicle); higher = higher PER2::LUC reporter signal; conditions: time after treatment 30 h; 10 µM
In all, about 5,300 compounds were measured (“PER2::LUC luminescence relative to vehicle control”: median about 0.96, highest 2% from about 1.3 on). The sample as a whole holds a higher share of the highest values than the screen did.
measurementKind: PER2::LUC luminescence
// print number alone

Query :: State its PER2::LUC luminescence: `O=C(O)c1cccc(-c2noc(-c3ccccc3F)n2)c1`
Result :: 2.11

Query :: Look up PER2::LUC luminescence of `OC[C@H]1O[C@@H](n2cnc3c(NC4CCCC4)ncnc32)[C@H](O)[C@@H]1O` and report it.
Result :: 0.991

Query :: Name the recorded PER2::LUC luminescence of the compound listed here: CC(C)CCNC(=O)c1ccc2c(c1)nc(Nc1n[nH]c3ccc(-c4ccccc4OC(F)(F)F)cc13)n2C1CCC(O)CC1 (stereo unspecified)
Result :: 0.553

Query :: Return PER2::LUC luminescence (reported value) for this compound: `Nc1nc(=O)c2c([nH]1)NCC(CNc1ccc(C(=O)N[C@@H](CCC(=O)O)C(=O)O)cc1)=N2`
Result :: 0.985

Query :: Tell me measured PER2::LUC luminescence for CCN(CC)C(=O)C(c1ccccc1)N1CCN(c2ccc(NC(=O)c3ccccc3-c3cccnc3)cc2F)CC1 (stereo unspecified) please.
Result :: 1.09

Query :: State its PER2::LUC luminescence: `COc1ccc2oc(-c3ccccc3OC)cc(=O)c2c1`
Result :: 1.61

Query :: Let me know recorded PER2::LUC luminescence for `O=C(OCc1ccccc1)c1ccccc1` , thanks.
Result :: 1.03

Query :: Respond only with PER2::LUC luminescence recorded for `NC(=O)c1ccccc1Nc1ccnc(Nc2cccc(O)c2)n1`
Result :: 0.446

Further cases:
Query :: Return PER2::LUC luminescence for the following compound: `COc1ccc(-c2cc(=O)c3ccc(O)cc3o2)cc1`
Result :: 1.23

Query :: Input `FC(F)(F)c1cccc(-c2noc(-c3cc(-c4ccccc4)c(C(F)(F)F)s3)n2)c1` , output reported PER2::LUC luminescence.
Result :: 1.14

Query :: Return value of PER2::LUC luminescence for input `COc1ccc2c(=O)c(OC)c(-c3ccccc3)oc2c1` , no commentary.
Result :: 0.809

Query :: State its PER2::LUC luminescence for this compound: CCOc1ccc(-n2c(C(C)N(Cc3cccnc3)C(=O)Cc3ccc(OC(F)(F)F)cc3)nc3ncccc3c2=O)cc1 (stereo unspecified)
Result :: 0.944

Query :: Using known records, supply PER2::LUC luminescence for `O=C(Nc1ccc(OC(F)(F)F)cc1)c1sccc1NCc1ccnc2ccccc12`
Result :: 1.99

----------
test system: mPer2Luc MEF; assay: PER2::LUC luminescence relative to vehicle control (fold of vehicle); higher = higher PER2::LUC reporter signal; details: time after treatment 24 h; 10 µM
Whole data set: some 5,300 compounds, median “PER2::LUC luminescence relative to vehicle control” near 0.96, cut for the highest 2% near 1.3. The entries come from a sample that favours the highest values as a whole.
Recorded PER2::LUC luminescence, one value per entry.
Quick one: just the number, no unit, thanks!

Here's what some known entries look like.
Query :: Output reported PER2::LUC luminescence of the compound OCC1OC(n2cnc3c(NC4CCCC4)nc(Cl)nc32)C(O)C1O (centres undefined) on mPer2Luc MEF.
Result :: 0.932

Query :: Param request: PER2::LUC luminescence | system mPer2Luc MEF | item `CC(C)=CCC/C(C)=C/CC/C(C)=C/CC/C(C)=C/C(=O)O`
Result :: 1.07

Query :: Tell me its PER2::LUC luminescence on mPer2Luc MEF: `O=C1C[C@@H](c2ccc(O)cc2)Oc2cc(O)cc(O)c21`
Result :: 1.46

New cases:
Query :: Give the observed PER2::LUC luminescence of `COc1ccc2cc([C@@H](C)C(=O)O)ccc2c1` for mPer2Luc MEF.
Result :: 1

Query :: Tell me its PER2::LUC luminescence on mPer2Luc MEF: `O=C1c2ccccc2C(=O)c2oc(-c3ccccc3)nc21`
Result :: 1.15

Query :: Write down the reported PER2::LUC luminescence (system: mPer2Luc MEF) of `COc1cc2ncnc(N(C)c3cccc(Br)c3)c2cc1OC`
Result :: 0.83

Query :: # return PER2::LUC luminescence for `CCN(CC)CCNC(=O)c1ccc(N)cc1` , test system: mPer2Luc MEF
Result :: 1.11

Query :: State, for mPer2Luc MEF, measured PER2::LUC luminescence of the compound listed here: `Nn1cc(Br)c(=O)[nH]c1=O`
Result :: 0.972
